# experiment: In vivo pharmacokinetic study, single oral dose in mice, plasma and liver
# study_conditions: male, ICR, mouse, liver, po, 80 mg/kg
# CL/F per entry
// note: answer is a bare numeric in L/h/kg

Some solved entries appear below for comparison.
| chemical_string | CL/F [L/h/kg] |
| --- | --- |
| CCCN(CCC)CCOc1ccc2c(=O)c3c(F)cc(F)cc3[nH]c2c1 | 0.932 |
| CCCN(CCC)CCOc1ccc2c(=O)c3c(Cl)c(Cl)ccc3[nH]c2c1 | 0.147 |

Now consider a different compound.
Fill in the blank: the reported CL/F of `CCCN(CCC)CCCOc1ccc2c(=O)c3c(F)cc(F)cc3[nH]c2c1` is ____. 0.348

Taken from paper PMC6822569.
